Test system: K562
Assay: Antiproliferative activity against human K562 cells measured after 48 hrs by SRB assay
Type: functional, cell-based
Conditions: K562, 48 h
READOUT TYPE: IC50 (nM)
Numbers only here, please. The scale is nM.

O=C(NCCCNc1cc(-c2cn(-c3ccccc3)nc2-c2cccc(O)c2)ccn1)Nc1ccc(F)cc1 ... 810

Could you now consider this next compound?
I'd like to know its IC50. The compound in question is O=C(Nc1ccc(Cl)c(C(F)(F)F)c1)N1CCN(c2cc(-c3cn(-c4ccccc4)nc3-c3cccc(O)c3)ccn2)CC1 2130

---

Below, each entry is listed with its recorded pIC50.
System: HCT-15
Experiment: Antiproliferative activity against human HCT-15 cells measured after 48 hrs by SRB assay
Assay type: functional, cell-based
Details: HCT-15, 48 h
Schema: pIC50 number; meaning minus log10 of the concentration expressed in molar units.

Which pIC50 value belongs to COc1cccc(-c2nn(-c3ccccc3)cc2-c2ccnc(NCCCNC(=O)Nc3ccc(F)cc3)c2)c1 ? 5.12

I have this compound here, O=C(NCCCNc1cc(-c2cn(-c3ccccc3)nc2-c2cccc(O)c2)ccn1)Nc1cccc(C(F)(F)F)c1 , and I need its recorded pIC50. 5.97

I have this compound here, O=C(Nc1ccc(Cl)c(C(F)(F)F)c1)N1CCN(c2cc(-c3cn(-c4ccccc4)nc3-c3cccc(O)c3)ccn2)CC1 , and I need its recorded pIC50. 5.55

Fill blank: measured pIC50 of the compound O=C(NCCCNc1cc(-c2cn(-c3ccccc3)nc2-c2cccc(O)c2)ccn1)Nc1ccc(F)cc1 is ____. 6.03

Tell me the measured pIC50 of O=C1c2ccccc2-c2n[nH]c3cccc1c23 , please. 5.09
